This section presents molecules with their documented GI50 values.
- System: ACHN renal
- Experiment summary: NCI tumour cell line growth inhibition, 48 h
Where a SMILES comes first, the peptide text is derived from it.
Parameter: GI50

molecule=O=c1cc(/C=C/c2ccc(O)c(O)c2)cc(/C=C/c2ccc(O)c(O)c2)o1 parameter=GI50 readout_value="4010 nM"
molecule=CCCCCCCCn1ccc2cc(NC(=O)Cn3cc(CN4CCN(CC)CC4)nn3)ccc21 parameter=GI50 readout_value="1820 nM"
molecule=CCOC(=O)c1cc(C(=O)c2cc(OC)c(OC)c(OC)c2)n2nc(C)ccc12 parameter=GI50 readout_value="524 nM"
molecule=CC(=O)/C(=C\c1c(-c2ccccc2)[nH]c2ccccc12)S(C)(=O)=O parameter=GI50 readout_value="5640 nM"
molecule="COc1cc2c(cc1OCCCCCN1CCN(CCCCCOc3cc4c(cc3OC)C(=O)C3CCC[C@H]3C=N4)CC1)N=C[C@@H]1CCCC1C2=O (some centres undefined)" parameter=GI50 readout_value="18900 nM"
molecule=COc1ccc2nc3c(n2c1)C(=O)C(=O)c1ccccc1-3 parameter=GI50 readout_value="1460 nM"
molecule=NS(=O)(=O)c1ccc(N=Nc2c(O)[nH]c3ccc(Cl)cc23)cc1 parameter=GI50 readout_value="9950 nM"
molecule="CCC(C)C1NC(=O)C(CCCCN)NC(=O)C(CCCCN)NC(=O)C(CC(C)C)NC(=O)C(CCCCN)NC(=O)C(C(C)CC)NC(=O)C(C(C)C)NC(=O)C(C(C)CC)NC(=O)C(CCCCN)NC(=O)C(CCCCN)NC(=O)C(C)NC(=O)C(CCCCN)NC(=O)C(CC(C)C)NC1=O (centres undefined) (cyclo(AKKIVIKLKKILK); configuration not given here)" parameter=GI50 readout_value="2360 nM"
molecule=COc1ccc(/C=C(/C(=O)N2CCCCC2)c2cc(OC)c(OC)c(OC)c2)cc1 parameter=GI50 readout_value="713 nM"
